test system: ACHN renal; experiment: NCI tumour cell line growth inhibition, 48 h
Item-by-item account of TGI
Express your answer in µM, writing the number without its unit.

Use these answered entries as a reference point.
compound	assay system	measurement unit	TGI
CN1CC=C(c2cc(NC(=O)Nc3ccc(Oc4ccnc(NC(=O)C5CC5)c4)c(F)c3)cc(C(F)(F)F)c2)CC1	ACHN renal	µM	2.67
N#Cc1c(N)oc(-c2ccc([N+](=O)[O-])cc2)c1C#N	ACHN renal	µM	72.4
Cc1cc2cc3cc(C)c(N)cc3nc2cc1N	ACHN renal	µM	1.6
CCc1ccccc1NC(=O)C(C#N)C1=C(Cl)C(=O)c2ccccc2C1=O (configuration not stated)	ACHN renal	µM	29.9
Nc1nc(N)c(CCCCc2ccccc2)c(C=O)n1	ACHN renal	µM	51.6
COc1cc(OC)cc(Oc2cnc3cc(N)cc(N)c3n2)c1	ACHN renal	µM	33.3

Request: Field request: TGI | item: Cc1cc(Cl)nc2ccc(Cc3ccc4nc(Cl)cc(C)c4c3)cc12
Response: 70.8

Request: O=C(COc1ccccc1Cl)N1N=C(c2ccccc2)CC1(O)c1ccccc1 (configuration not stated) , same question.
Response: 55.7

---

system: TK-10 renal; assay: NCI tumour cell line growth inhibition, 48 h
attribute measured: TGI (µM)
API: value field is a number in µM; no unit string.

Here is how some molecules turned out for TGI.
molecule	measurement unit	TGI
O=C1/C(=C/c2ccc(O)cc2)CCCC1CN1CCCCC1 (configuration not stated)	µM	8.64
Oc1c(CN2CCCC2)ccc2cccnc12	µM	88.7

Request: Request the reported TGI associated with CC(=O)c1ccccc1NC(=O)C(=O)C(C(=O)c1ccc2ccccc2c1)C1OC(=O)c2ccccc21 (configuration not stated)
Response: 92.4

Request: Record: O=C(CCCn1c2c(sc3ccccc32)c(=O)n2nnc(-c3ccccc3)c12)NCCc1cnc[nH]1
Response: 3.75

Request: Also need Cc1cc2cc3cc(C)c(N)cc3nc2cc1N , thanks.
Response: 1.62

---

Here, each record is paired with measured TGI data.
tested on: COLO 205 colon; test: NCI tumour cell line growth inhibition, 48 h
Where a SMILES comes first, the peptide text is derived from it. The star is where a group is joined. Boc = CC(C)(C)OC(=O)*

Request: What reported TGI corresponds to C/C(=N\Nc1nc2cc(Cl)ccc2s1)c1ccccn1 on COLO 205 colon?
Response: > 60.4 µM

Request: Lookup O=C(CCCn1c2c(sc3ccccc32)c(=O)n2nnc(-c3ccccc3)c12)NCCc1cnc[nH]1
Response: 2.35 µM

Request: What do you get for COc1cccc2c1OC1Sc3ccccc3-c3nn(-c4ccccc4)c-2c31 (stereo not given) ?
Response: > 100 µM

Request: Then what about the molecule Cc1ccc(Cc2cc(N3CCN(c4cccc(Cl)c4)CC3)nnc2C)cc1 ?
Response: 73.8 µM

Request: Also COC(=O)C(Cc1ccccc1)NC(=O)C(CS)NC(=O)OC(C)(C)C (stereo not drawn) (Boc-Cys-Phe-OMe; configuration not given here) ?
Response: > 100 µM

Request: What do you have for O=c1[nH]c2ccccc2c(O)c1Cc1ccccc1 ?
Response: > 100 µM

Request: Input COc1cc2c(cc1OC)C(C#N)N(C(=O)c1ccccc1)C=C2OC(=O)c1ccccc1 (stereo not given)
Response: > 100 µM

Request: Try CS(=O)(=O)N1CCC(n2c(=O)c(Oc3ccc(F)cc3F)cc3cnc(NC4CCOCC4)nc32)CC1 next.
Response: > 25 µM

Request: Thanks! And COC(=O)C1=COC2OC3C(C(C)O)C(=O)OC34C=CC1C24 (stereo not given) ?
Response: > 100 µM

Request: Now this one: Fc1ccc(-c2sc(-c3ccsc3)cc2Cc2ccsc2)cc1
Response: > 10 µM

Request: # iterate: CCCCCCCCCCNCCSSCc1ccc(Cl)cc1
Response: 5.95 µM

Request: Try the molecule COC(=O)[C@H](CC(C)C)NC(=O)[C@H](Cc1ccccc1)N1CC2C=CC1C2 (stereo not given in full)
Response: > 100 µM

Request: Next molecule: Cc1ccc(/C=C/C(=O)Oc2ccc(/C=C3\CCC/C(=C\c4ccc(OC(=O)/C=C/c5ccc(C)cc5)cc4)C3=O)cc2)cc1
Response: > 100 µM

Request: Subsequent entry: COc1ccc(-c2cc(/C=C3\C(=O)Nc4cc(Cl)ccc43)[nH]n2)cc1
Response: 5.51 µM

Request: What do we get for Cc1ccccc1C1=C(c2cn(C)c3ccccc23)C(=O)NC1=O ?
Response: > 25 µM

---

tested on: 786-0 renal; assay: NCI tumour cell line growth inhibition, 48 h; in the data active = GI50 below about 0.43 µM; inactive = the rest
# valid calls are active, inactive; nothing else

Would you please look over these solved cases?
compound	label value
Cc1ccc(C)c2c1C(=O)N(c1ccc(F)cc1F)C2=O	inactive
Cn1cc(C2=C(c3c4n(c5ccccc35)CCNC4)C(=O)NC2=O)c2ccccc21	inactive
COC1=CC(c2ccc[nH]2)=N/C1=C\c1[nH]c(C)c(C(=O)CCC(=O)Oc2ccc3c(c2)CCC2C3CC[C@]3(C)[C@@H](O)CC[C@@H]23)c1C (stereo partly specified)	inactive
CCCCCCCCCCCCCC[n+]1ccccc1	inactive
C[C@@H](N)COc1ccc(-c2cnc3ccc(N[C@H](C)c4cccc(F)c4)nn23)cc1	inactive

Request: Dear colleague, could you share the recorded outcome for C/C(CCC(=O)O)=N/Nc1ccc([N+](=O)[O-])cc1 when you have a moment?
Response: inactive

Request: Moving on to Cc1ccccc1C1=C(c2cn(C)c3ccccc23)C(=O)NC1=O
Response: inactive

Request: # iterate: CCN1CCC(CC(=O)Nc2n[nH]c3nnc(-c4cccc(F)c4F)cc23)CC1
Response: inactive

Request: Try this compound next: O=C(CN1CCN(Cc2ccccc2Cl)CC1)NC1CC(=O)c2c(Br)sc(Br)c21 (stereo unspecified)
Response: inactive

Request: Quick one: NC(=O)c1cccc2c(N[C@H](CN3CCC3)c3ccc(Cl)c(C(F)(F)F)c3)ncnc12
Response: active

Request: How about this compound: CC(c1cc(Cl)ccc1O)c1cc(Cl)ccc1O
Response: inactive

Request: Ok, now CN(C)C1CCN(Cc2ccc(NC(=O)c3cncc(C#Cc4cnc(N)c5ncccc45)c3)cc2C(F)(F)F)CC1
Response: inactive

---

// reported TGI per item
system: UACC-62 melanoma; test: NCI tumour cell line growth inhibition, 48 h
Please give a number only; it is taken to be in µM.

compound	attribute measured	obs value
O=C(c1ccccc1)C(Cl)C(Cl)c1ccccc1 (centres undefined)	TGI	3.69
Cc1ccc([Se](=C(C(=O)c2ccccc2)C(=O)c2ccccc2)c2ccc(C)cc2)cc1	TGI	51.5
CC(=O)C1=C(C)O[C@@H]2O[C@H](COCc3ccccc3)[C@@H](OCc3ccccc3)[C@H](O)[C@@H]2S1	TGI	31.8

Pending compound:
Request: Fill in the recorded TGI for this compound, with UACC-62 melanoma as test system: CC1=C/C=C/C(=O)O[C@@H]([C@H](C)[C@H](O)[C@@H](C)NC(=O)C(C)C)[C@H](C)/C=C/C(C)=C/[C@H]2C=CCC[C@@]2(C)\C=C\1
Response: 8.98

---

test system: TK-10 renal; assay: NCI tumour cell line growth inhibition, 48 h
Each entry below lists one item and its recorded TGI value.

Please review the following examples before continuing.
compound	obs value
COc1ccc(-n2c(SC(CN3CCOCC3)CN3CCCC3=O)nc3ccccc3c2=O)cc1 (stereo unspecified)	> 100 µM
O=Cc1cccc2ccc3ccccc3c12	40.2 µM
O=c1[nH]c(=O)c2ncn(-c3ccc([N+](=O)[O-])cn3)c2[nH]1	> 100 µM
CC1(C)OC[C@H](C(=N)OCc2ccccc2)O1	> 100 µM
CC1(C)CC(=O)C=C(/C=C/Sc2c(Cl)c(Cl)nc(Cl)c2Cl)C1	35.5 µM

Request: TGI lookup needed for COc1cc(C2c3cc4c(cc3OC(NNC(N)=O)C2C)OCO4)cc(OC)c1OC (stereo unspecified) , thanks.
Response: > 100 µM

Request: Next compound up: O=C(Cc1ccccc1[N+](=O)[O-])C(CO)c1ccccc1[N+](=O)[O-] (stereo unspecified)
Response: > 100 µM

---

test system: ACHN renal; assay: NCI tumour cell line growth inhibition, 48 h; in the data active = GI50 below about 0.43 µM; inactive = the rest
Use one of these outcomes when replying: yes for active, no for inactive

Request: Can you look up the reported call for CCCCCCCCCCCCCC[n+]1ccccc1 for me?
Response: no

Request: Now the same for CCn1c(-c2nonc2N)nc2c(C#CC(C)(C)O)ncc(OC3CCNCC3)c21
Response: no

Request: Quick one: Cc1ccc(-c2nc3nc(-c4ccc(F)cc4)nc(N4CCNCC4)c3o2)cc1
Response: no

Request: Thanks! And NC(=O)c1cccc2c(N[C@H](CN3CCC3)c3ccc(Cl)c(C(F)(F)F)c3)ncnc12 ?
Response: no

Request: Similarly, COC(=O)c1ccc2nc(-c3cc4ccccc4n3C)n(CCCCOc3cc4c(cc3OC)C(=O)N3CCC[C@H]3C=N4)c2c1 ?
Response: no

Request: # repeat for CCC(C)(C)c1cc(O)c(C(C)(C)CC)cc1O
Response: no

Request: // next record CN1CCN(Cc2ccc(NC(=O)c3cncc(C#Cc4c(N)ncc5ccc(C#N)cc45)c3)cc2C(F)(F)F)CC1
Response: no

Request: Check Cn1cc(C2=C(c3c4n(c5ccccc35)CCNC4)C(=O)NC2=O)c2ccccc21 too.
Response: no

Request: Check C/C(=N\NC(=S)N1CCN(c2ccccn2)CC1)c1ccccn1 too.
Response: yes

Request: Also CS(=O)(=O)N1CCC(n2c(=O)c(Oc3ccc(F)cc3F)cc3cnc(NC4CCOCC4)nc32)CC1 , if possible.
Response: no

Request: Would you kindly repeat that for CN(C)C1CCN(Cc2ccc(NC(=O)c3cncc(C#Cc4cnc(N)c5ncccc45)c3)cc2C(F)(F)F)CC1 ?
Response: no

Request: Same again, this time with O=C(c1ccccc1)C(Cl)C(Cl)c1ccccc1 (configuration not stated)
Response: no
